ASSAYED SYSTEM: activated MEK1 (Homo sapiens)
Construct: purchased Millipore 14-429
Sequence (Q02750 whole entry): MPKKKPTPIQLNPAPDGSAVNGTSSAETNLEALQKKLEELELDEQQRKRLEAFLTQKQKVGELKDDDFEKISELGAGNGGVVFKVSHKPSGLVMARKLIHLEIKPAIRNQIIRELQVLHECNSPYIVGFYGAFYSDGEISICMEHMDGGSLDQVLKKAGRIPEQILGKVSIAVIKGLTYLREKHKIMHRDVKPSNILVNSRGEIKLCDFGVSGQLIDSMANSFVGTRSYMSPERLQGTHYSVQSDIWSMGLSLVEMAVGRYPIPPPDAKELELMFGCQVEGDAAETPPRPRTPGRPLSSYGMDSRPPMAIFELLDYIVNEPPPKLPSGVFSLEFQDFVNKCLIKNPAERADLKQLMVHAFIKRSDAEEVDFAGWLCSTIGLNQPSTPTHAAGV
METHOD SUMMARY: MEK Lance Ultra experiment
Assay type: biochemical
CONDITION DESCRIPTION: 0.07 nM activated MEK1, 2 nM non-activated ERK, 50 μM ATP; read-out: MEK potency IC50
As shown below, each of these molecules has a reported pIC50 value.
A value of pIC50 is the negative decimal logarithm of a concentration given in moles per litre.

A selection of reference data follows.
[
  {
    "STRUCTURE NOTATION": "CC(=O)Nc1cncc(-c2c(C)n(C3CC3)c(=O)c3c(Nc4ccc(I)cc4F)c(C)c(=O)oc23)n1",
    "MEASUREMENT LABEL": "pIC50",
    "MEASURED": 7.39
  },
  {
    "STRUCTURE NOTATION": "CC(=O)Nc1cccc(-c2c(C)[nH]c(=O)c3c(Nc4ccc(I)cc4F)c(C)c(=O)oc23)c1",
    "MEASUREMENT LABEL": "pIC50",
    "MEASURED": 7.17
  },
  {
    "STRUCTURE NOTATION": "COCCn1c(C)cc2oc(=O)c(C)c(Nc3ccc(I)cc3F)c2c1=O",
    "MEASUREMENT LABEL": "pIC50",
    "MEASURED": 7.06
  }
]

Kindly review the next molecule as well.
Field request: pIC50 | item: COCCCn1c(C)cc2oc(=O)c(C)c(Nc3ccc(I)cc3F)c2c1=O
7.11

---

Test system: A375 cells
METHOD SUMMARY: Cell viability experiment (Cell Titer-Glo), A375
Format: cell-based
CONDITION DESCRIPTION: Homo sapiens, A-375, 72 h, A375 cells, 3 days incubation; read-out: A375 IC50
MEASUREMENT LABEL: pIC50
A value of pIC50 is the negative decimal logarithm of a concentration given in moles per litre.

A selection of reference data follows.
[
  {
    "COMPOUND": "Cc1c(Nc2ccc(I)cc2F)c2c(=O)n(C3CC3)c(C)c(-c3ccnc(NS(C)(=O)=O)c3)c2oc1=O",
    "pIC50": 8.09
  },
  {
    "COMPOUND": "Cc1c(Nc2ccc(I)cc2F)c2c(=O)n(C3CC3)c(C)c(-c3cccc(NC(N)=O)c3)c2oc1=O",
    "pIC50": 8.18
  },
  {
    "COMPOUND": "Cc1c(Nc2ccc(I)cc2F)c2c(=O)n(C3CC3)c(C)c(-c3cccc(CNS(N)(=O)=O)c3)c2oc1=O",
    "pIC50": 8.12
  },
  {
    "COMPOUND": "CC(=O)Nc1cccc(-c2c(C)n(C3CC3)c(=O)c3c(Nc4ccc(I)cc4F)c(C)c(=O)oc23)c1",
    "pIC50": 8.83
  },
  {
    "COMPOUND": "CC(=O)Nc1cccc(-c2c(C)n(C3CC3)c(=O)c3c(Nc4ccc(I)cc4F)c(C)c(=O)oc23)n1",
    "pIC50": 8.79
  }
]

Field request: pIC50 | item: Cc1c(Nc2ccc(I)cc2F)c2c(=O)n(C3CC3)c(C)c(-c3cccc(NS(C)(=O)=O)c3)c2oc1=O
8.34

Field request: pIC50 | item: COCCn1c(C)cc2oc(=O)c(C)c(Nc3ccc(I)cc3F)c2c1=O
7.17
